system: H146 cells; assay: H146 cell viability, MTT assay; type: cell-based; conditions: Homo sapiens, NCI-H146, 48 h, 48 h exposure
Parameter Measured: IC50 (µM)

[P] CNCCN(C)CCCCCN(c1cc(C)c(Nc2nc3ccccc3s2)nn1)c1nc(C(=O)O)c(CCCOc2ccc(C#CCN(C)C)cc2F)s1
[Q] CNCC#Cc1ccc(OCCCc2sc(N(CCCCC[N+](C)(C)CC(=O)O)c3cc(C)c(Nc4nc5ccccc5s4)nn3)nc2C(=O)[O-])c(F)c1
[ask] Higher IC50 between P and Q ? Mark your selection by writing its label.
[reply] Q
(Q: 1.61 µM, P: 0.0783 µM)
